SYSTEM_NAME: T1, IL-18 receptor (IL-18Rαβ) on cells (UniProt Q13478 19-541; O95256 20-599, limits assumed)
T1 sequence (looked up) 1: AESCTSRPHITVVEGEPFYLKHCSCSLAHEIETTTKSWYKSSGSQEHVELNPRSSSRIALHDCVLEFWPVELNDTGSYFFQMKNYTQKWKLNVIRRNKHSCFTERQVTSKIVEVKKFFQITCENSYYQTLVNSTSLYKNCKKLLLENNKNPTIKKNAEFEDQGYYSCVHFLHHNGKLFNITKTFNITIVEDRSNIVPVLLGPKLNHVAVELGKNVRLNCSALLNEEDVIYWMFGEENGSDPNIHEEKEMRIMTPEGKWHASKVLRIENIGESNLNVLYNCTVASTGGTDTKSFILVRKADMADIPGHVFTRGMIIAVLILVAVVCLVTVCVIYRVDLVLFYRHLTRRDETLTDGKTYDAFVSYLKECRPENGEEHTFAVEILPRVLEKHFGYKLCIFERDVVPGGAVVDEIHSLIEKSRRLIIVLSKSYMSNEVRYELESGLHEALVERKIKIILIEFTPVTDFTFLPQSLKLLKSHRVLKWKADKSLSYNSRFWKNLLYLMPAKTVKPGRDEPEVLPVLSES
T1 sequence (looked up) 2: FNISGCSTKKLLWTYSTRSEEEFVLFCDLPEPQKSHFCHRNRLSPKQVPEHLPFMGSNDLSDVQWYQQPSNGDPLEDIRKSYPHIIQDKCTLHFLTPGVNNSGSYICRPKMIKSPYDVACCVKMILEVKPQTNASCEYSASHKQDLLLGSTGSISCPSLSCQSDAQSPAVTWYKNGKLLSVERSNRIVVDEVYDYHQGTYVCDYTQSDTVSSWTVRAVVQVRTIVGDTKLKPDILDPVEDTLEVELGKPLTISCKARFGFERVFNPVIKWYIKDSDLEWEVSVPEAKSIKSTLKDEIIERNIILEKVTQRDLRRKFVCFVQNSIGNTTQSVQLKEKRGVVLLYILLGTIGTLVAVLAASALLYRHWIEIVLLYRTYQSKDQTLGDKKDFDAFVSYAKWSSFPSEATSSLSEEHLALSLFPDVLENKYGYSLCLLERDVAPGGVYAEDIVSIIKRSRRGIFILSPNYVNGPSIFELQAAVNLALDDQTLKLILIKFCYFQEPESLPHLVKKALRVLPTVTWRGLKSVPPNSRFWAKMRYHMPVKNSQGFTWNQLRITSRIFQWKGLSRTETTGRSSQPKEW
PROTOCOL_NOTES: cell-based or functional assay
Listed below: Fold potency loss vs C086 values for each entry.
Please give a number only; it is taken to be in fold.

INSERT INTO measurements (binder, readout_kind, reported_value) VALUES
  ('C136 (C086-GGSGG-IL-18Rα D3-His6, non-cleavable control; SEQ ID NO: 77) (ligand) YFGKLKSKLSIIRNLNDQVLFIDQGNRPLFEDMTDSDARDNAPRTIFIISMYADSQPRGMAVAISVKCEKISTLSAENKIISFKEMNPPDNIKDTKSDIIFFQRSVPGHDNKMQFESSSYEGYFLAAEKERDLFKLILKKEDELGDRSIMFTVQNEGGSGGSNIVPVLLGPKLNHVAVELGKNVRLNCSALLNEEDVIYWMFGEENGSDPNIHEEKEMRIMTPEGKWHASKVLRIENIGESNLNVLYNCTVASTGGTDTKSFILVRKADHHHHHH', 'Fold potency loss vs C086', 21);

Switching to the query record.
Ask: Can you share its Fold potency loss vs C086? I mean this binder: C172 (C086-LinkerX-IL-18Rα D3-His6; SEQ ID NO: 73) (ligand) YFGKLKSKLSIIRNLNDQVLFIDQGNRPLFEDMTDSDARDNAPRTIFIISMYADSQPRGMAVAISVKCEKISTLSAENKIISFKEMNPPDNIKDTKSDIIFFQRSVPGHDNKMQFESSSYEGYFLAAEKERDLFKLILKKEDELGDRSIMFTVQNESGGPGPAGMKGLPGSNIVPVLLGPKLNHVAVELGKNVRLNCSALLNEEDVIYWMFGEENGSDPNIHEEKEMRIMTPEGKWHASKVLRIENIGESNLNVLYNCTVASTGGTDTKSFILVRKADHHHHHH
Reply: 26
